Experiment: Phase I/IIA study: pharmacokinetics after oral administration
Format: in vivo, human
Settings: human, plasma; oral; read-out: elimination half-life (converted)
ASSAY_METRIC: half-life

>  <COMPOUND_STRUCTURE>
CC(C)(C)c1ccc(Oc2ccc(N)cn2)cc1

>  <RESULT>
~20 h

$$$$
